Catalogue of compounds with associated MIC
System: S. aureus
measurement_protocol: MIC, agar dilution, multipoint inoculator
Format: cell-based, Staphylococcus aureus
particulars: S. aureus Cowan 1; upper value of MIC reading

{"smiles_str": "NC(=NN=Cc1cc([N+](=O)[O-])ccc1O)c1cccnc1", "quantity_unit": "µg/mL", "MIC": 16}
{"smiles_str": "CN(C)CCCOc1ccc(C=NN=C(N)c2ccc3ccccc3n2)cc1", "quantity_unit": "µg/mL", "MIC": 128}
{"smiles_str": "O=Cc1cc(Br)cc([N+](=O)[O-])c1O", "quantity_unit": "µg/mL", "MIC": 32}
{"smiles_str": "NC(=NN=Cc1cc(O)c(O)cc1O)c1ccc2ccccc2n1", "quantity_unit": "µg/mL", "MIC": 256}
{"smiles_str": "NC(=NN=Cc1cc(Br)cc([N+](=O)[O-])c1O)c1ccccn1", "quantity_unit": "µg/mL", "MIC": 64}
